B1: TRIM35 (parent)
chain: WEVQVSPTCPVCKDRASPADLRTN

Variants of: B1
assay_name: protein stability index of a GFP-peptide fusion (GPS, HEK-293T) (PSI 1-6); higher = more stable;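 further: lentivirally expressed fusions sorted by FACS into six bins by GFP to DsRed ratio, PSI derived from sequencing read proportions per bin multiplied by bin number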
setup_conditions: c terminus: a fixed tail appended
The following variants are shown together with reported protein stability index values.
outcome_measure: protein stability index

1) R15N ... 2.48
2) P18D ... 1.99
3) K13E ... 2.71
4) V11N ... 2.9
5) S17I ... 2.66
6) W1Y ... 2.65
7) Q4R ... 1.9
8) Q4E ... 2.08
9) N24Q ... 2.81
10) Q4A ... 1.73
11) S17N ... 2.51
12) C12G ... 3.7
13) K13R ... 1.46
14) C9I ... 3.53
15) V5G ... 2.48
16) A19W ... 2.3
17) A19K ... 2.96
18) K13Q ... 2.66
19) W1F ... 2.85
20) P7D ... 2.43
21) C12Q ... 3.9
